# Tgt: C5a receptor (Homo sapiens)
# Construct: endogenous in cells; host or cells: leukocytes/granulocytes in freshly drawn whole blood of healthy volunteers
# Sequence (P21730 whole entry): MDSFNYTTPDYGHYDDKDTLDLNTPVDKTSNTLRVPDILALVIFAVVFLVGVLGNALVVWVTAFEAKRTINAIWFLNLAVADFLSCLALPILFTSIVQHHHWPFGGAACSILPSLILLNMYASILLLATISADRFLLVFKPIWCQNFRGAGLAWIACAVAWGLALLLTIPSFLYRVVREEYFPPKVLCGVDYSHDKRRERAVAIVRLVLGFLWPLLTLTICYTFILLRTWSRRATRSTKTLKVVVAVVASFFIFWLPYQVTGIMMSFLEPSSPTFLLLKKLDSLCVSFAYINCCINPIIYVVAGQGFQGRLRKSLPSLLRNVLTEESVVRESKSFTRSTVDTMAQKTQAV
# Procedure Summary: HWB oxidative burst assay (C5a-induced, luminol chemiluminescence)
# Assay type: cell-based
Record form. Attribute: Kb. Fill in for each entry.
Quick reminder: number only, in nM, skip the unit.

Consider N=C(N)NCCC[C@@H]1NC(=O)[C@H](Cc2n[nH]c3ccccc23)NC(=O)[C@@H](C[C@H]2CC[C@@H](O)CC2)NC(=O)[C@@H]2C[C@@H](O)CN2C(=O)[C@@H](NC(=O)[C@H](Cc2ccccc2)NCC(=O)O)CCCNC1=O [Example 16] . Its measured Kb is 6.5

Consider CCc1ccc2c(C[C@@H]3NC(=O)[C@@H](C[C@H]4CC[C@@H](O)CC4)NC(=O)[C@@H]4C[C@@H](O)CN4C(=O)[C@@H](NC(=O)[C@H](Cc4ccccc4)NCC(=O)O)CCCNC(=O)[C@H](CCCNC(=N)N)NC3=O)c[nH]c2c1 [Example 17] . Its measured Kb is 29.7

###

Record form. Attribute: Kb. Fill in for each entry.
# Tgt: C5a receptor (Homo sapiens)
# Construct: endogenous in cells; host or cells: leukocytes/granulocytes in freshly drawn whole blood of healthy volunteers
# Procedure Summary: HWB oxidative burst assay (C5a-induced, luminol chemiluminescence)
# Type: cell-based
Numbered stars: 1 amine (or outer) side, 2 acyl side, 3 side chain; on linkers, the order of the positions; unused ones are H or OH. Bridge positions count the residues as written; N and C are the ends. Square brackets hold non-standard residues; d marks the D form. Peptide text beside a SMILES is read from it. * marks the point of attachment. X2 = O=C([C@@H](C[C@H]1CC[C@@H](O)CC1)N[*:1])[*:2]; X1 = CN(CC(=O)O)[C@@H](Cc1ccccc1)C(=O)*; Hyp = O=C(O)[C@@H]1C[C@@H](O)CN1; Orn = NCCC[C@H](N)C(=O)O
Quick reminder: number only, in nM, skip the unit.

Consider `N=C(N)NCCC[C@@H]1NC(=O)[C@H](Cc2c[nH]c3ccccc23)NC(=O)[C@@H](C[C@H]2CC[C@@H](O)CC2)NC(=O)[C@@H]2C[C@@H](O)CN2C(=O)[C@@H](NC(=O)[C@H](Cc2ccccc2)NCC(=O)O)CCCNC1=O` . Its measured Kb is 1.6

Consider `N=C(N)NCCC[C@@H]1NC(=O)[C@H](Cc2c[nH]c3ncccc23)NC(=O)[C@@H](C[C@H]2CC[C@@H](O)CC2)NC(=O)[C@@H]2C[C@@H](O)CN2C(=O)[C@@H](NC(=O)[C@H](Cc2ccccc2)NCC(=O)O)CCCNC1=O` . Its measured Kb is 68.1

Consider `CC(=O)N[C@@H]1C[C@H]2C(=O)N[C@H](C[C@H]3CC[C@@H](O)CC3)C(=O)N[C@@H](Cc3c[nH]c4ccccc34)C(=O)N[C@@H](CCCNC(=N)N)C(=O)NCCC[C@H](NC(=O)[C@H](Cc3ccccc3)NCC(=O)O)C(=O)N2C1` . Its measured Kb is 1

Consider `COc1ccc2[nH]cc(C[C@@H]3NC(=O)[C@@H](C[C@H]4CC[C@@H](O)CC4)NC(=O)[C@@H]4C[C@@H](O)CN4C(=O)[C@@H](NC(=O)[C@H](Cc4ccccc4)NCC(=O)O)CCCNC(=O)[C@H](CCCNC(=N)N)NC3=O)c2c1` . Its measured Kb is 3

Consider `[2H]c1cc([2H])cc(C[C@H](NCC(=O)O)C(=O)N[C@H]2CCCNC(=O)[C@H](CCCNC(=N)N)NC(=O)[C@H](Cc3c[nH]c4ccccc34)NC(=O)[C@@H](C[C@H]3CC[C@@H](O)CC3)NC(=O)[C@@H]3C[C@@H](O)CN3C2=O)c1` . Its measured Kb is 1.3

Consider `N=C(N)NCCC[C@@H]1NC(=O)[C@H](Cc2c[nH]c3ccccc23)NC(=O)[C@@H](C[C@H]2CC[C@@H](O)CC2)NC(=O)[C@@H]2C[C@@H](NCC(=O)O)CN2C(=O)[C@@H](NC(=O)[C@H](Cc2ccccc2)NCC(=O)O)CCCNC1=O` . Its measured Kb is 1.7

Consider `COc1ccc2c(C[C@@H]3NC(=O)[C@@H](C[C@H]4CC[C@@H](O)CC4)NC(=O)[C@@H]4C[C@@H](O)CN4C(=O)[C@@H](NC(=O)[C@H](Cc4ccccc4)NCC(=O)O)CCCNC(=O)[C@H](CCCNC(=N)N)NC3=O)c[nH]c2c1` . Its measured Kb is 2.2

Consider CN(CC(=O)O)[C@@H](Cc1ccccc1)C(=O)N[C@H]1CCCNC(=O)[C@H](CCCNC(=N)N)NC(=O)[C@H](Cc2c[nH]c3ccccc23)NC(=O)[C@@H](C[C@H]2CC[C@@H](O)CC2)NC(=O)[C@@H]2C[C@@H](O)CN2C1=O [Example 11] (X1-[Orn][Hyp][X2]WR; lactam 1-C) . Its measured Kb is 1.2

Consider `N=C(N)NCCC[C@@H]1NC(=O)[C@H](Cc2c[nH]c3ccccc23)NC(=O)[C@@H](C[C@H]2CC[C@@H](O)CC2)NC(=O)[C@@H]2C[C@@H](OCC(=O)O)CN2C(=O)[C@@H](NC(=O)[C@H](Cc2ccccc2)NCC(=O)O)CCCNC1=O` . Its measured Kb is 3

Consider `N=C(N)NCCC[C@@H]1NC(=O)[C@H](Cc2c[nH]c3ccccc23)NC(=O)[C@@H](C[C@H]2CC[C@@H](O)CC2)NC(=O)[C@@H]2C[C@H](N)CN2C(=O)[C@@H](NC(=O)[C@H](Cc2ccccc2)NCC(=O)O)CCCNC1=O` . Its measured Kb is 1.8
